Target: Streptavidin (Streptomyces avidinii) (UniProt P22629)
Sequence (P22629 whole entry, looked up): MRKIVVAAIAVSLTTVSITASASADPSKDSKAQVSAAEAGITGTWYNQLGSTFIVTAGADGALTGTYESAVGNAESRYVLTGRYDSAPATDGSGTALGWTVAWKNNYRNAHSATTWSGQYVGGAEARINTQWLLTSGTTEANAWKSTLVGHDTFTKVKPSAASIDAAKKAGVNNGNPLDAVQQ
Assay: compounds binding control protein streptavidin – biophysical, small-molecule microarray, 635/667 nm fluorescence, artefact control for SMM compound annotation, primary screen (AID 1147);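 note: signal reflects streptavidin binding to arrayed compounds as a control protein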
Settings: higher = more signal
recorded-endpoint: composite z-score

* Cc1ccccc1C(O)C1C=CC2C(=O)N(C)C(=O)C2N1Nc1ccc([N+](=O)[O-])cc1[N+](=O)[O-] (centres undefined) | 1.04
* COCCCNC(=O)[C@@H]1c2ccccc2C(=O)N(Cc2cc(F)cc(C(F)(F)F)c2)[C@H]1c1ccc(CO)cc1 | -0.716
* C=CCNC(=O)[C@@H]1[C@H]2C(=O)O[C@H](c3ccccc3)[C@H](c3ccccc3)N2[C@H](c2ccc(O)cc2)[C@@]12C(=O)Nc1ccc(C#CCCO)cc12 | -0.955
* O=C(O)[C@]1(CCS(=O)(=O)c2ccccc2)N=C(c2ccc(OCCCO)cc2)O[C@@H]1c1ccccc1 | -0.0087
* CC(C)N1C(=O)c2ccccc2[C@](C)(C(=O)O)[C@@H]1c1ccc(CO)cc1 | -0.603
* N#Cc1ccc(NN2C(C(O)c3ccco3)C=CC3C(=O)N(c4ccccc4)C(=O)C32)cc1 (centres undefined) | 0.252
* C=CCC(OC(C)=O)[C@@H]1[C@@H](N(Cc2ccc(-c3ccccc3)cc2)C(=O)c2cccc3ccccc23)c2cc(OCCCO)ccc2N1C(=O)c1ccc2ccccc2n1 (some centres undefined) | 0.306
* O=C1c2ccccc2[C@](Cc2ccccc2I)(C(=O)NC2CC2)[C@H](c2ccc(CO)cc2)N1Cc1ccccc1Cl | 0.191
* CO[C@H]1O[C@H](CO)[C@@H](OC(=O)c2ccc(Br)cc2)[C@@H]2OC(=O)[C@H](Cc3cccc(Br)c3)C/C=C/C[C@@H](Cc3cccc(Br)c3)C(=O)O[C@@H]12 | 0.578
* C=CCNC(=O)[C@H]1[C@@H]2C(=O)O[C@@H](c3ccccc3)[C@@H](c3ccccc3)N2[C@@H](c2ccc(OCCO)cc2)[C@]12C(=O)N(C(=O)OCCOC)c1ccc(C#CC3=CCCCC3)cc12 | 0.716
* CC(C)(C)N1CC=CC23O[C@@H]4C=CCCOC(=O)C4[C@H]2C(=O)N(CCCO)[C@@H]3C1=O (some centres undefined) | -1.33
* COCCOC(=O)N1C(=O)[C@@]2(c3cc(C#CCC(C(=O)OC)C(=O)OC)ccc31)[C@H](c1ccc(OCCO)cc1)N1[C@H](c3ccccc3)[C@H](c3ccccc3)OC(=O)[C@H]1[C@@H]2C(N)=O | 0.576
* CC1(C)[C@@H]2CC(C(O)C3C=CC4C(=O)N(c5ccccc5)C(=O)C4N3Nc3ccccc3F)=C[C@@H]1C2 (some centres undefined) | 0.5
* O=C1C2C=CC(C(O)c3ccc(Br)cc3)N(Nc3ccccc3)C2C(=O)N1c1ccccc1 (centres undefined) | 1.47
